system-name: Serotonin 1 receptors; 5-HT1B & 5-HT1D (Homo sapiens) (UniProt P28222+P28221)
procedure-details: Binding Selectivity was determined [Selectivity = Ki against h5-HT1B receptor / Ki against h5-HT1D receptor]
Type: protein assay
Assign Selectivity to each entry below.
Please give the numeric answer without any surrounding text.

(Q) Name the recorded Selectivity for Cc1ccc(CC2=NCCN2)c(C)c1OCc1ccccc1 .
(A) 4

(Q) Name the recorded Selectivity for Cc1ccc(O)c(C)c1CC1=NCCN1 .
(A) 6

(Q) Name the recorded Selectivity for CC(C)c1ccc(CC2=NCCN2)cc1 .
(A) 8

(Q) Name the recorded Selectivity for Cc1cc(C(C)C)cc(C)c1CC1=NCCN1 .
(A) 34

(Q) Name the recorded Selectivity for Cc1cc(C(C)(C)C)ccc1CC1=NCCN1 .
(A) 105

(Q) Name the recorded Selectivity for Cc1cc(Br)cc(C)c1CC1=NCCN1 .
(A) 21

(Q) Name the recorded Selectivity for Cc1cc(C)c(CC2=NCCN2)c(C)c1 .
(A) 48

(Q) Name the recorded Selectivity for CC(C)(C)c1ccc(CC2=NCCN2)cc1 .
(A) 65

(Q) Name the recorded Selectivity for Cc1ccc(CC2=NCCN2)c(C)c1O .
(A) 1

meta.source: ChEMBL document CHEMBL1131255
